tested on: RXF 393 renal; assay: NCI tumour cell line growth inhibition, 48 h
Recorded TGI by entry
Recorded Endpoint: TGI (µM)

>  <Compound>
CC(C)(C)OC(=O)/C=C/C(=O)O/C=C/[N+](=O)[O-]

>  <Assay Target>
RXF 393 renal

>  <Readout Units>
µM

>  <Censor Symbol>
>

>  <Recorded Measurement>
100

$$$$
>  <Compound>
COc1ccc(CN=C2Nc3ccncc3S(=O)(=O)N2c2ccccc2)cc1

>  <Assay Target>
RXF 393 renal

>  <Readout Units>
µM

>  <Censor Symbol>
>

>  <Recorded Measurement>
100

$$$$
>  <Compound>
FC(F)(F)C1(C(F)(F)F)OC(Cl)(Cl)C(Cl)(Cl)O1

>  <Assay Target>
RXF 393 renal

>  <Readout Units>
µM

>  <Censor Symbol>
>

>  <Recorded Measurement>
10

$$$$
>  <Compound>
c1ccc2[nH]c(-c3ccc(OCCCCCOc4ccc(-c5nc6ccccc6[nH]5)cc4)cc3)nc2c1

>  <Assay Target>
RXF 393 renal

>  <Readout Units>
µM

>  <Censor Symbol>
=

>  <Recorded Measurement>
3.08

$$$$
>  <Compound>
CSCCCNC(=O)c1csc([C@@H](CSC)NC(=O)CCNC(=O)[C@@H](NC(=O)OCC(Br)(Br)Br)C(C)O)n1 (some centres undefined)

>  <Assay Target>
RXF 393 renal

>  <Readout Units>
µM

>  <Censor Symbol>
>

>  <Recorded Measurement>
100

$$$$
>  <Compound>
O=S(=O)(O)c1ccc(N=Nc2ccc(N=Nc3ccc(/C=C/c4ccc(N=[N+]([O-])c5ccc(/C=C/c6ccc(N=Nc7ccc(N=Nc8ccc(S(=O)(=O)O)cc8)c8ccccc78)cc6S(=O)(=O)O)c(S(=O)(=O)O)c5)cc4S(=O)(=O)O)c(S(=O)(=O)O)c3)c3ccccc23)cc1

>  <Assay Target>
RXF 393 renal

>  <Readout Units>
µM

>  <Censor Symbol>
>

>  <Recorded Measurement>
100

$$$$
>  <Compound>
N#CSCC1CC(O)(c2ccccc2)C(c2ccccc2)C(c2ccc(F)cc2)O1 (centres undefined)

>  <Assay Target>
RXF 393 renal

>  <Readout Units>
µM

>  <Censor Symbol>
=

>  <Recorded Measurement>
4.4

$$$$
>  <Compound>
c1cncc(C(Nc2cccc3cccnc23)Nc2cccc3cccnc23)c1

>  <Assay Target>
RXF 393 renal

>  <Readout Units>
µM

>  <Censor Symbol>
>

>  <Recorded Measurement>
100

$$$$
>  <Compound>
CC1(C)SC2C(NC(=O)Cc3ccccc3)C(=O)N2C1C(=O)O (centres undefined)

>  <Assay Target>
RXF 393 renal

>  <Readout Units>
µM

>  <Censor Symbol>
>

>  <Recorded Measurement>
100

$$$$
>  <Compound>
CCc1nc2ccc(Cc3ccc(C(=O)NO)cc3)cc2c(=O)n1CCc1ccccc1

>  <Assay Target>
RXF 393 renal

>  <Readout Units>
µM

>  <Censor Symbol>
=

>  <Recorded Measurement>
2.3

$$$$
>  <Compound>
CNC1NC(=O)c2ccccc2N1Cc1ccc(F)cc1 (centres undefined)

>  <Assay Target>
RXF 393 renal

>  <Readout Units>
µM

>  <Censor Symbol>
>

>  <Recorded Measurement>
100

$$$$
>  <Compound>
CC(C)(C)C(=O)C(c1ccc(-c2cscn2)cc1)c1ccc(-c2cscn2)cc1

>  <Assay Target>
RXF 393 renal

>  <Readout Units>
µM

>  <Censor Symbol>
=

>  <Recorded Measurement>
54.7

$$$$
>  <Compound>
O=C(O)c1cc2c(cc1S(=O)(=O)O)C1C(C3C2C2(Cl)C(Cl)=C(Cl)C3(Cl)C2(Cl)Cl)C2(Cl)C(Cl)=C(Cl)C1(Cl)C2(Cl)Cl (centres undefined)

>  <Assay Target>
RXF 393 renal

>  <Readout Units>
µM

>  <Censor Symbol>
>

>  <Recorded Measurement>
100

$$$$
>  <Compound>
CN(/N=N/c1nc(OCc2ccccc2)c2[nH]cnc2n1)C(=O)N(C)/N=N/c1nc(OCc2ccccc2)c2[nH]cnc2n1

>  <Assay Target>
RXF 393 renal

>  <Readout Units>
µM

>  <Censor Symbol>
>

>  <Recorded Measurement>
100

$$$$
>  <Compound>
O=C(c1ccco1)N1CCN(C(=O)c2ccco2)C1=S

>  <Assay Target>
RXF 393 renal

>  <Readout Units>
µM

>  <Censor Symbol>
=

>  <Recorded Measurement>
12

$$$$
>  <Compound>
Cc1ccc2c(=O)[nH]sc2c1

>  <Assay Target>
RXF 393 renal

>  <Readout Units>
µM

>  <Censor Symbol>
=

>  <Recorded Measurement>
28.6

$$$$
>  <Compound>
C/C(=N/NC(=S)N(Cc1ccccn1)Cc1ccccn1)c1cnccn1

>  <Assay Target>
RXF 393 renal

>  <Readout Units>
µM

>  <Censor Symbol>
=

>  <Recorded Measurement>
17.4

$$$$
>  <Compound>
O=C(N/N=C/c1cc(Br)cc(Br)c1[O-])c1ccccc1O.O=C(N/N=C/c1cc(Br)cc(Br)c1[O-])c1ccccc1O.[Mn+2]

>  <Assay Target>
RXF 393 renal

>  <Readout Units>
µM

>  <Censor Symbol>
=

>  <Recorded Measurement>
28.4

$$$$
>  <Compound>
C=C1C(=O)O[C@@H]2C[C@@H](C)[C@@H]3[C@@H](OC4OC(COC(C)=O)C(O)C(O)C4O)CC(=O)[C@@]3(C)C[C@H]12 (some centres undefined)

>  <Assay Target>
RXF 393 renal

>  <Readout Units>
µM

>  <Censor Symbol>
=

>  <Recorded Measurement>
4.21

$$$$
>  <Compound>
COc1ccc2nc(NC(=O)C(=O)CC(=O)c3ccc(Cl)cc3)sc2c1

>  <Assay Target>
RXF 393 renal

>  <Readout Units>
µM

>  <Censor Symbol>
>

>  <Recorded Measurement>
100

$$$$
>  <Compound>
O=C(c1ccc(NCN2C(=O)CCC2=O)cc1)c1ccc(NCN2C(=O)CCC2=O)cc1

>  <Assay Target>
RXF 393 renal

>  <Readout Units>
µM

>  <Censor Symbol>
>

>  <Recorded Measurement>
100

$$$$
>  <Compound>
N#C[C@](CO)(NC(=O)OCc1ccccc1)C(F)F

>  <Assay Target>
RXF 393 renal

>  <Readout Units>
µM

>  <Censor Symbol>
>

>  <Recorded Measurement>
100

$$$$
>  <Compound>
CCCN(CCC)C(=O)Cc1c2n(c3ccccc13)Cc1ccccc1-2

>  <Assay Target>
RXF 393 renal

>  <Readout Units>
µM

>  <Censor Symbol>
>

>  <Recorded Measurement>
100

$$$$
>  <Compound>
CCO[C@H]1C[C@@H](c2ccccc2)[C@]2(C)C[C@H](C(=O)OC)ON2O1

>  <Assay Target>
RXF 393 renal

>  <Readout Units>
µM

>  <Censor Symbol>
>

>  <Recorded Measurement>
100

$$$$
>  <Compound>
CN1CCN(Cc2ccc(NC(=O)c3[nH]ncc3Nc3ncnc4c3CCC4)cc2)CC1

>  <Assay Target>
RXF 393 renal

>  <Readout Units>
µM

>  <Censor Symbol>
=

>  <Recorded Measurement>
3.23

$$$$
>  <Compound>
O=c1[nH]nc2c3c(cccc13)NC(CN1Cc3ccccc3C1)=N2

>  <Assay Target>
RXF 393 renal

>  <Readout Units>
µM

>  <Censor Symbol>
=

>  <Recorded Measurement>
74.1

$$$$
>  <Compound>
COc1cc2cnc3c(c2cc1OC)Cc1cc2c(cc1-3)OCO2

>  <Assay Target>
RXF 393 renal

>  <Readout Units>
µM

>  <Censor Symbol>
>

>  <Recorded Measurement>
92.5

$$$$
>  <Compound>
COc1ccc(C(=O)c2cc(OC)c(OC)c(OC)c2)cc1O

>  <Assay Target>
RXF 393 renal

>  <Readout Units>
µM

>  <Censor Symbol>
>

>  <Recorded Measurement>
100

$$$$
>  <Compound>
CCOC(=O)c1cc2cc(CSc3ccccc3)ccc2oc1=O

>  <Assay Target>
RXF 393 renal

>  <Readout Units>
µM

>  <Censor Symbol>
>

>  <Recorded Measurement>
100

$$$$
>  <Compound>
CC1(C)OC2CN(C(=O)OCc3ccccc3)C(CO)C2O1 (centres undefined)

>  <Assay Target>
RXF 393 renal

>  <Readout Units>
µM

>  <Censor Symbol>
>

>  <Recorded Measurement>
100

$$$$
>  <Compound>
CSc1nc(-c2cc3c(c(SC)n2)CCC3)cc2c1CCC2

>  <Assay Target>
RXF 393 renal

>  <Readout Units>
µM

>  <Censor Symbol>
>

>  <Recorded Measurement>
100

$$$$
>  <Compound>
CCOc1cc2ncc(C#N)c(Nc3ccc(F)c(Cl)c3)c2cc1NC(=O)/C=C/CN(C)C

>  <Assay Target>
RXF 393 renal

>  <Readout Units>
µM

>  <Censor Symbol>
=

>  <Recorded Measurement>
3.46

$$$$
>  <Compound>
CC(=O)Oc1cccc2c1C(=O)C(Br)(Br)CCC2

>  <Assay Target>
RXF 393 renal

>  <Readout Units>
µM

>  <Censor Symbol>
=

>  <Recorded Measurement>
12.6

$$$$
>  <Compound>
C=CC1(CBr)CCC(C(C)(C)Br)O1 (centres undefined)

>  <Assay Target>
RXF 393 renal

>  <Readout Units>
µM

>  <Censor Symbol>
=

>  <Recorded Measurement>
27.3

$$$$
>  <Compound>
COC1=C(C(=O)OC(C)(C)C)[C@]2(C)C(C(=O)OC(C)(C)C)C(OC)=C(C(=O)OC(C)(C)C)[C@]2(C)C1C(=O)OC(C)(C)C (some centres undefined)

>  <Assay Target>
RXF 393 renal

>  <Readout Units>
µM

>  <Censor Symbol>
>

>  <Recorded Measurement>
100

$$$$
>  <Compound>
O=C(NCCCCNCCCNC(=O)C(F)(F)F)C(F)(F)F

>  <Assay Target>
RXF 393 renal

>  <Readout Units>
µM

>  <Censor Symbol>
>

>  <Recorded Measurement>
100

$$$$
>  <Compound>
O=C(N/N=C/c1ccc(O)cc1O)c1ccc(Nc2ccnc(C(F)(F)F)c2)cc1

>  <Assay Target>
RXF 393 renal

>  <Readout Units>
µM

>  <Censor Symbol>
=

>  <Recorded Measurement>
64.1

$$$$
>  <Compound>
N#CC(C#N)=CN1CCN(C(=O)c2ccccc2)C1=S

>  <Assay Target>
RXF 393 renal

>  <Readout Units>
µM

>  <Censor Symbol>
=

>  <Recorded Measurement>
70.7

$$$$
>  <Compound>
O/N=C1\CC2(N3CCOCC3)CCC1(Cc1ccccc1)CC2

>  <Assay Target>
RXF 393 renal

>  <Readout Units>
µM

>  <Censor Symbol>
=

>  <Recorded Measurement>
42

$$$$
